Ref: patent US11248006B2

assay target: UniProt:P30291
method notes: Wee1 enzyme catalysis assay (ATP-Glo Max kinase luminescence detection kit)
Type: biochemical
measurement context: Wee1 enzymatic activity, 10 μM ATP, Poly (Lys, Tyr) substrate, 30° C. for 50 minutes
reported property: pIC50
Keep it numeric: pIC50 is minus log10 of the concentration in mol/L.

molecule: O=C1COc2ccc3nc2N1CCC/C=C\Cn1c(=O)c2cnc(Nc4ccc5c(c4)CN(CC(F)F)CC54CC4)nc2n1-3
pIC50: 8.05
--
molecule: COc1cc(Nc2ncc3c(=O)n4n(c3n2)-c2ccc3c(n2)N(CCC/C=C\C4)C(=O)CC3)ccc1N1CCN(C)CC1
pIC50: 8.12

Look up and report measured pIC50 for this entry: O=C1COc2ccc3nc2N1CCC/C=C\Cn1c(=O)c2cnc(Nc4ccc5c(ccn5C5CCN(CCO)CC5)c4)nc2n1-3
8.07

Recall and state the measured pIC50 for CN1CCN(c2ccc(Nc3ncc4c(=O)n5n(c4n3)-c3ccc4c(n3)N(CCC/C=C\C5)C(=O)CO4)cc2CO)CC1 .
8.26

Input CC(=O)N1CCC/C=C\Cn2c(=O)c3cnc(Nc4ccc5c(c4)CN(C)CC54CC4)nc3n2-c2cccc1n2 , output reported pIC50.
8.43

Give me measured pIC50, please, for this molecule: COc1cc(Nc2ncc3c(=O)n4n(c3n2)-c2ccc3c(n2)N(CCC/C=C\C4)CCO3)ccc1N1CCN(C)CC1
7.89

---

Quick reference: pIC50 of the listed items.
assay target: Wee1 (Homo sapiens (Human), UniProt P30291)
Sequence (P30291 whole entry): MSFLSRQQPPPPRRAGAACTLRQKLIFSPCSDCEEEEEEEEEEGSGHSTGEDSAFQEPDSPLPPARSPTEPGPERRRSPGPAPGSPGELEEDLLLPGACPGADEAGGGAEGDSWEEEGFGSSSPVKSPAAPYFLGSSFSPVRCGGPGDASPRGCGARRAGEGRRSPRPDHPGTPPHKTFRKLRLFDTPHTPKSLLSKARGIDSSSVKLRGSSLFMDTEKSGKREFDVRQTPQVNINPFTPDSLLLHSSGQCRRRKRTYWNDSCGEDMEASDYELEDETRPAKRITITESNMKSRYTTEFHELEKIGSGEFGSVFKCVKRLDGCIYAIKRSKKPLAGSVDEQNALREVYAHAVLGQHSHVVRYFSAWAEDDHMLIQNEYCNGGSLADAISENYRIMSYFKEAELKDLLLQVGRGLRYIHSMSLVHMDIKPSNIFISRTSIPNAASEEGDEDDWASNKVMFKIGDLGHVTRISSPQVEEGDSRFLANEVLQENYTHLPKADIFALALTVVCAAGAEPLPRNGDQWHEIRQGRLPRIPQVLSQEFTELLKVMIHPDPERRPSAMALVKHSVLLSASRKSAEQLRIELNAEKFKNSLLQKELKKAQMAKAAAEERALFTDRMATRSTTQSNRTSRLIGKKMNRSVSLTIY
method notes: Wee1 enzyme catalysis assay (ATP-Glo Max kinase luminescence detection kit)
Assay type: biochemical
measurement context: Wee1 enzymatic activity, 10 μM ATP, Poly (Lys, Tyr) substrate, 30° C. for 50 minutes
The meaning of pIC50 here: minus log10 of the concentration in molar units.

Some entries whose results are on file:
molecule: CN1CCN(C)c2ccc(Nc3ncc4c(=O)n5n(c4n3)-c3ccc4c(n3)N(CCC/C=C\C5)C(=O)CO4)cc2C1 [Compound 3-4-1]
pIC50: 8.03

molecule: CN1Cc2cc(Nc3ncc4c(=O)n5n(c4n3)-c3ccc4c(n3)N(CCO4)C(=O)OC/C=C\C5)ccc2C2(CC2)C1 [Compound 8-3-1]
pIC50: 7.79

Shifting focus to the molecule that follows.
Quote pIC50 reported for CC(C)N1CCC(n2ncc3cc(Nc4ncc5c(=O)n6n(c5n4)-c4ccc5c(n4)N(CCC/C=C\C6)C(=O)CO5)ccc32)CC1 [Compound 3-7-14] please.
8.19

---

assay target: Wee1 (Homo sapiens (Human), UniProt P30291)
method notes: Wee1 enzyme catalysis assay (ATP-Glo Max kinase luminescence detection kit)
Format: biochemical
measurement context: Wee1 enzymatic activity, 10 μM ATP, Poly (Lys, Tyr) substrate, 30° C. for 50 minutes
Decide using IC50 alone. Strictly below 10 nM: fulfilled. Equal to or above 10 nM: not fulfilled.

molecule: CN1CCCC(n2ccc3cc(Nc4ncc5c(=O)n6n(c5n4)-c4ccc5c(n4)N(CCC/C=C\C6)C(=O)CO5)ccc32)C1 (stereo not drawn)
assay target: Wee1 (Homo sapiens (Human), UniProt P30291)
qualitative label: not fulfilled
--
molecule: CN(C)CCn1ccc2cc(Nc3ncc4c(=O)n5n(c4n3)-c3ccc4c(n3)N(CCC/C=C\C5)C(=O)CO4)ccc21
assay target: Wee1 (Homo sapiens (Human), UniProt P30291)
qualitative label: fulfilled
--
molecule: Cc1cc(Nc2ncc3c(=O)n4n(c3n2)-c2ccc3c(n2)N(CCCC=CC4)C(=O)CO3)ccc1N1CCN(C)CC1
assay target: Wee1 (Homo sapiens (Human), UniProt P30291)
qualitative label: fulfilled
--
molecule: CN1CCC(n2ccc3cc(Nc4ncc5c(=O)n6n(c5n4)-c4ccc5c(n4)N(CCC/C=C\C6)C(=O)CO5)ccc32)C1 (stereo not drawn)
assay target: Wee1 (Homo sapiens (Human), UniProt P30291)
qualitative label: fulfilled
--
molecule: COc1cc(Nc2ncc3c(=O)n4n(c3n2)-c2ccc3c(n2)N(CCC#CC4)C(=O)CO3)ccc1N1CCN(C)CC1
assay target: Wee1 (Homo sapiens (Human), UniProt P30291)
qualitative label: not fulfilled
--
molecule: CCN1Cc2cc(Nc3ncc4c(=O)n5n(c4n3)-c3ccc4c(n3)N(CCC/C=C\C5)C(=O)CO4)ccc2C2(CC2)C1
assay target: Wee1 (Homo sapiens (Human), UniProt P30291)
qualitative label: fulfilled

IC50 under 10 nM? Item: COc1cc(Nc2ncc3c(=O)n4n(c3n2)-c2cccc(n2)OCC/C=C\C4)ccc1N1CCN(C)CC1
fulfilled

Does the reported IC50 of the following molecule sit strictly below 10 nM? CN1CCn2c(cc3cc(Nc4ncc5c(=O)n6n(c5n4)-c4ccc5c(n4)N(CCC/C=C\C6)C(=O)CO5)ccc32)C1
not fulfilled
